- Target System: T1, Recombinant neuroligin-1 (NL-1) (UniProt Q62765 46-697)
- T1 construct: neuroligin-1, recombinant; source: bought: R&D Systems (cat# 4340-NL)
- T1 sequence (Q62765 46-697): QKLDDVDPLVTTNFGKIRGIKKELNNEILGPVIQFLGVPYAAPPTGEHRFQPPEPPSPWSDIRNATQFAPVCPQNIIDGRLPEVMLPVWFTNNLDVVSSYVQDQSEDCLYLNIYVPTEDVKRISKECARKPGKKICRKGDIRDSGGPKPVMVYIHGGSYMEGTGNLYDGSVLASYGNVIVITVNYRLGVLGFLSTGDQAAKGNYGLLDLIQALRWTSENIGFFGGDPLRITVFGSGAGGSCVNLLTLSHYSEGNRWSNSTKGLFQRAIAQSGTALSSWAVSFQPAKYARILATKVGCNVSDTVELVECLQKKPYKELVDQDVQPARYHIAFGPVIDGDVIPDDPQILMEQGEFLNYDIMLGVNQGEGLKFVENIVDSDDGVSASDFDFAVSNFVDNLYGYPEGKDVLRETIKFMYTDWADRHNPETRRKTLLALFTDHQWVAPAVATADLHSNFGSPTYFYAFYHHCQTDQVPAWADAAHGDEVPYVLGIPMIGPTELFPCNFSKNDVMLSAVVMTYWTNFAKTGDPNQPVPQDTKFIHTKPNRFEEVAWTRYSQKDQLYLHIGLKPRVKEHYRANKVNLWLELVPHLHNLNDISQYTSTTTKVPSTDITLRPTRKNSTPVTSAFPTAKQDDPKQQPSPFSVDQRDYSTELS
- Test Method Notes: SPR; Biacore 2000; NL-1 immobilised on a CM4 chip by amine coupling (~2800 RU); analyte NX-1β Fc chimera 0.05-0.8 µM or Neurexide 1.25-20 µM; 25 °C; HBS-P (10 mM HEPES pH 7.4, 150 mM NaCl, 0.005% P20) with 3 mM CaCl2; 30 µl/min; 1:1 Langmuir fit
- Settings: both partners purified
No end group written: not given here.
Parameter: Kd (µM)
One number for each entry, in µM.

Which Kd value is on record for ARPSTRADRA (also: tetramer coupled to a lysine backbone, The peptide was made as a C-terminally amidated monomer, a dimer and a tetramer; also called Neurexin peptide; source: synthetic peptide) ?
0.48

Source of measurements: paper PMC7582164
